Answer each item with its documented kon.
Molecular target: B7-H4 purified monomeric recombinant human protein (Homo sapiens, UniProt Q7Z7D3)
Sequence (Q7Z7D3 25-259): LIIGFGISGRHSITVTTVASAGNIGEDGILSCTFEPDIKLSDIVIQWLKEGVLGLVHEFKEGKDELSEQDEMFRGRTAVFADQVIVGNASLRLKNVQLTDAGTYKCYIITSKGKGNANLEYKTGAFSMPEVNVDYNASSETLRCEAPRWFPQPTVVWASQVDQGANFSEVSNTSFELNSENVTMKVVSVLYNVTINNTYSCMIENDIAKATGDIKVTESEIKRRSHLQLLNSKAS
Test: SPR
Give the value in M⁻¹ s⁻¹ but do not write M⁻¹ s⁻¹ after it.

*Q* For the binder shown here, B03 (scFv, V domains shown) VH: EVQLVESGGGVVQPGRSLRLSCAASGFTFGDRAMNWVRQAPGKGLEWVSAISGSGSGTYYADSVKGRFTISRDNSKNTLYLQMNSLRAEDTAVYYCARKRWYGMDVWGQGTTVTVSS VL: SYELTQPPSVSVAPGKTARITCGGNNIGMKSVHWYQQKPGQAPVLVVYDDSDRPSGIPERFSGSNSGNTATLTISRVEAGDEADYYCQVWDRGMIFGTGTKLTVL , give the reported kon.
*A* 300000

*Q* # kon lookup, item B04 (scFv, V domains shown) VH: EVQLVESGGGVVQPGRSLRLSCAASGFSFSSRAMNWVRQAPGKGLEWVSAVSGSGSGTYYADSVKGRFTISRDNSKNTLYLQMNSLRAEDTAVYYCARKRWYGMDVWGQGTTVTVSS VL: SYELTQPPSVSVAPGKTARITCGGNNIGLKSVHWYQQKPGQAPVLVVYDDSDRPSGIPERFSGSNSGNTATLTISRVEAGDEADYYCQVWDRGMIFGTGTKLTVL
*A* 160000
